biological target: human ether-à-go-go-related gene (hERG) potassium channel (human); assay: primary screen, population patch clamp on CHO cells stably expressing hERG; higher = less effect of the substance;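 further: peak tail current of the secondary pulse compared with the same well before compound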
Among all 310,000 compounds or so, about 14,000 (4.5%) showed an effect of 50% or more. The effect is printed as a negative number. Only a selection was taken, and strong results are over-represented in it overall.
Binary call on hERG current change (%, negative = inhibition) at 10uM: met from -20% upward, not met beneath that.

[[record]]
compound = "CCc1ccc(-c2nc(CN3CCC(C(=O)NCCc4ccc(OC)c(OC)c4)CC3)c(C)o2)cc1"
group_label = "not met"

[[record]]
compound = "COc1ccccc1C1CC(c2cccc(NS(C)(=O)=O)c2)=NN1S(=O)(=O)c1ccccc1 (stereo not drawn)"
group_label = "met"

[[record]]
compound = "Cc1ccc(S(=O)(=O)CCC(=O)OCC(=O)NCc2ccc(Cl)cc2)cc1"
group_label = "met"

[[record]]
compound = "Cc1cccnc1CN1CCN(Cc2nc(Cc3cccc(F)c3)no2)CC1"
group_label = "not met"

[[record]]
compound = "COc1ccc(NC(=O)CSCC(=O)N=c2sccn2C)cc1"
group_label = "met"

[[record]]
compound = "CCS(=O)(=O)N1CCCC(C(=O)NCCc2ccc(OC)c(OC)c2)C1 (stereo not drawn)"
group_label = "met"

[[record]]
compound = "Cc1ccc(C(=O)N2CCN(c3ccc(NC(=O)c4cccnc4)cc3)CC2)cc1"
group_label = "not met"

[[record]]
compound = "N#Cc1cc2c(nc1SCC(=O)Nc1sc3c(c1C#N)CCC3)CCCC2"
group_label = "met"

[[record]]
compound = "O=C(CSc1cccc(C(F)(F)F)c1)Nc1cc(S(=O)(=O)N2CCCC2)ccc1Cl"
group_label = "met"

[[record]]
compound = "c1ccc(Cc2noc(CN3CCCN(C4Cc5ccccc5C4)CC3)n2)cc1"
group_label = "not met"

[[record]]
compound = "CSc1ccc(CN2CCCC(N3CCN(c4ccccc4)CC3)C2)cc1 (stereo not drawn)"
group_label = "not met"

[[record]]
compound = "Fc1cccc(Cc2noc(CN3CCCN(C4Cc5ccccc5C4)CC3)n2)c1"
group_label = "not met"

[[record]]
compound = "O=C(CCN1C(=O)c2ccccc2C1=O)C1=NN[C@@H]2C(=O)N(c3ccc(F)cc3)C(=O)[C@H]12"
group_label = "met"

[[record]]
compound = "COc1ccc(NC(=S)Nc2ccccn2)cc1"
group_label = "met"

[[record]]
compound = "Cc1ccccc1N1CCN(Cc2nc(Cc3ccccc3)no2)CC1"
group_label = "met"

[[record]]
compound = "CC1(c2nnc(Cc3ccccc3)o2)CC(c2ccccc2)=NO1 (stereo not drawn)"
group_label = "met"

[[record]]
compound = "Cc1ccc(S(=O)(=O)NC(C)(C)CN2CCCCC2)cc1"
group_label = "met"

[[record]]
compound = "COc1ccc(CN2CCCC(N3CCN(c4ccc(OC)cc4)CC3)C2)cc1 (stereo not drawn)"
group_label = "not met"

[[record]]
compound = "COc1cc(-c2nc3cnccn3c2Nc2ccccc2)ccc1O"
group_label = "met"

[[record]]
compound = "CC1(c2nnc(Cc3ccccc3)o2)CC(c2ccc(Cl)cc2)=NO1 (stereo not drawn)"
group_label = "not met"

[[record]]
compound = "c1ccc(Cc2noc(CN3CCN(C4CCc5ccccc5C4)CC3)n2)cc1 (stereo not drawn)"
group_label = "not met"

[[record]]
compound = "O=C(c1ccco1)N1CCCN(Cc2nc(Cc3ccccc3)no2)CC1"
group_label = "not met"

[[record]]
compound = "CCOc1ccc(CN2CCCC(N3CCN(c4ccc(OC)cc4)CC3)C2)cc1 (stereo not drawn)"
group_label = "not met"

[[record]]
compound = "COc1ccc(C(=O)Nc2ccc(-n3nncc3C(C)(C)C)cc2)cc1"
group_label = "not met"

[[record]]
compound = "COc1c(Cl)cc(Cl)cc1C(=O)Nc1ccc(NC(=O)c2cccs2)cc1"
group_label = "met"

[[record]]
compound = "COc1ccc(OC)c(/C=N/N2CCN(c3ccc(Cl)cc3)CC2)c1"
group_label = "met"

[[record]]
compound = "COc1cccc(C(=O)Nc2ccc(-n3nncc3C(C)(C)C)cc2)c1"
group_label = "not met"

[[record]]
compound = "Fc1cccc(Cc2noc(CN3CCOCC3)n2)c1"
group_label = "met"

[[record]]
compound = "Cc1cc(C(=O)NCc2cccc(Cl)c2)c2ccccc2n1"
group_label = "met"

[[record]]
compound = "Cc1csc(=O)n1CCC(=O)OCC(=O)c1ccc(Br)cc1"
group_label = "met"


* * *

target: human ether-à-go-go-related gene (hERG) potassium channel (human, UniProt Q12809); assay: primary screen, population patch clamp on CHO cells stably expressing hERG; higher = less effect of the substance;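 further: peak tail current of the secondary pulse compared with the same well before compound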
Sequence (Q12809 whole entry, looked up): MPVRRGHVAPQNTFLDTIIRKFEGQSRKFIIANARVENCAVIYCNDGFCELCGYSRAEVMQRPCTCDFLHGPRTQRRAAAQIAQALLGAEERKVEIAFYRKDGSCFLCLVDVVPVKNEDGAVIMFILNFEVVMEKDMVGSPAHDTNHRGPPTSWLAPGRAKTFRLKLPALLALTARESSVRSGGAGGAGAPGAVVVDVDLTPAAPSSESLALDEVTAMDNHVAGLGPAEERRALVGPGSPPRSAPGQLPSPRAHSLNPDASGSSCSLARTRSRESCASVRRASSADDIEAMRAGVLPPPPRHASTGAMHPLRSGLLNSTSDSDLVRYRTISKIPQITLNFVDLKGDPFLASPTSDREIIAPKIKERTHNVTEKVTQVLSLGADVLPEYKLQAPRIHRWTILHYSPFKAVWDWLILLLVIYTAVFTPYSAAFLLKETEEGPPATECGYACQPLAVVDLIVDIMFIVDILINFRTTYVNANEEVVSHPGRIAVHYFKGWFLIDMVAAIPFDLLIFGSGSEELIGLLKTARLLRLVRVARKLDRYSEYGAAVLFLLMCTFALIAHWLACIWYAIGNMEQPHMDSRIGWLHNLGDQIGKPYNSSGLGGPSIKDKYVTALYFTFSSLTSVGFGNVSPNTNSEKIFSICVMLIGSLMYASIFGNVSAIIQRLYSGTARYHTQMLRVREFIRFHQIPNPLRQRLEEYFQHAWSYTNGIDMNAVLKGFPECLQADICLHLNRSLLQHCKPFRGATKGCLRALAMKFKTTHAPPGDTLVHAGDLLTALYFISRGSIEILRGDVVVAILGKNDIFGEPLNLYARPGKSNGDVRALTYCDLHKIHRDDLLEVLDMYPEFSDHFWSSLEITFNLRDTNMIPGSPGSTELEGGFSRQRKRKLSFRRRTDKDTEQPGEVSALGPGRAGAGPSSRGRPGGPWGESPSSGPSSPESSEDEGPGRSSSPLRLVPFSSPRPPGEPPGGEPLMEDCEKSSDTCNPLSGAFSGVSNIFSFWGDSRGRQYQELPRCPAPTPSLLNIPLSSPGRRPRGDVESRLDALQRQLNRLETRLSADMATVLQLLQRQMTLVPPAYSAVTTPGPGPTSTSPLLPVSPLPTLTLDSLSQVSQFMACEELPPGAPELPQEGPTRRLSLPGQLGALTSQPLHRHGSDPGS
About 14,000 (4.5%) of roughly 310,000 compounds showed an effect of 50% or more. Effects have a minus sign here. This excerpt belongs to a sample that is enriched for strong results.
Recorded hERG current change (%, negative = inhibition) at 10uM for the following molecules
measured property: hERG current change (%, negative = inhibition) at 10uM

[[record]]
molecule = "Cn1c(=O)c(=O)n(C)c2cc(N3CCCCC3)c(NS(=O)(=O)c3ccc(Br)cc3)cc21"
test_system = "human ether-à-go-go-related gene (hERG) potassium channel (human, UniProt Q12809)"
value = "-65.1%"

[[record]]
molecule = "O=C(NCc1ccc(C(F)(F)F)cc1)C1CC(c2ccccc2[N+](=O)[O-])=NO1 (stereo not drawn)"
test_system = "human ether-à-go-go-related gene (hERG) potassium channel (human, UniProt Q12809)"
value = "-46.1%"

[[record]]
molecule = "CC(=O)N1CCc2cc(N=NC3=C(O)CCCC3=O)ccc21"
test_system = "human ether-à-go-go-related gene (hERG) potassium channel (human, UniProt Q12809)"
value = "9.61%"

[[record]]
molecule = "O=C(NCCc1c[nH]c2ccccc12)/C(=C/c1cccnc1)NC(=O)c1cccs1"
test_system = "human ether-à-go-go-related gene (hERG) potassium channel (human, UniProt Q12809)"
value = "-19.1%"

[[record]]
molecule = "Cc1ccccc1S(=O)(=O)Cc1ccc(C(=O)NCCCN2CCC(C)CC2)o1"
test_system = "human ether-à-go-go-related gene (hERG) potassium channel (human, UniProt Q12809)"
value = "-36.2%"

[[record]]
molecule = "CN(C)CCCNC(=S)N(Cc1cccs1)Cc1cc2cc3c(cc2[nH]c1=O)OCCO3"
test_system = "human ether-à-go-go-related gene (hERG) potassium channel (human, UniProt Q12809)"
value = "6.79%"

[[record]]
molecule = "CC1=C(C(=O)OCc2ccccc2)C(c2ccccc2Cl)NC(=O)N1CCCCCC(=O)O (stereo not drawn)"
test_system = "human ether-à-go-go-related gene (hERG) potassium channel (human, UniProt Q12809)"
value = "-12.4%"

[[record]]
molecule = "CC(=O)N/C(=C/c1ccc(Cl)cc1)C(=O)NCCc1c[nH]c2ccccc12"
test_system = "human ether-à-go-go-related gene (hERG) potassium channel (human, UniProt Q12809)"
value = "-20.8%"

[[record]]
molecule = "COc1ccc(OC)c(NS(=O)(=O)c2cc(OC)ccc2OC)c1"
test_system = "human ether-à-go-go-related gene (hERG) potassium channel (human, UniProt Q12809)"
value = "-2.14%"


* * *

molecular target: human ether-à-go-go-related gene (hERG) potassium channel (human, UniProt Q12809); test: primary screen, population patch clamp on CHO cells stably expressing hERG; higher = less effect of the substance;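 further: peak tail current of the secondary pulse compared with the same well before compound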
The campaign covered roughly 310,000 compounds. About 14,000 (4.5%) showed an effect of 50% or more. The effect is printed as a negative number. The full list was thinned out, with strong results kept by preference.
measured property: hERG current change (%, negative = inhibition) at 10uM (%)

[[record]]
mol = "Cc1ccc(CC(=O)Nc2ccc(S(=O)(=O)Nc3ncccn3)cc2)cc1"
value = 19.9

[[record]]
mol = "CCCc1cc(=O)[nH]c(Nc2ccc(Cl)cc2)n1"
value = 6.28

[[record]]
mol = "O=C(c1ccc(F)cc1)N1CCN(c2cc(=O)[nH]nc2-c2ccccc2)CC1"
value = -4.51

[[record]]
mol = "Cn1c(=O)n(Cc2ccc(F)cc2)c(=O)c2c1nc1n2CCN1Cc1ccco1"
value = -55.4

[[record]]
mol = "COCCNC(=O)c1cc2nc(-c3ccccc3)cc(C)n2n1"
value = 7.82

[[record]]
mol = "CCC(=O)N1CCN(c2ccc(Cl)cc2NC(=O)c2cccc([N+](=O)[O-])c2)CC1"
value = -49.2

[[record]]
mol = "O=C(c1ccc(Cl)cc1)N1CCN(c2cc(=O)[nH]nc2-c2ccccc2)CC1"
value = -58.3

[[record]]
mol = "O=C(Nc1ccc(Cl)cc1C(=O)N1CCCC1)c1cccc([N+](=O)[O-])c1"
value = -12

[[record]]
mol = "O=C(Nc1ccccc1N1CCN(C(=O)c2ccc(Cl)cc2)CC1)c1cccc([N+](=O)[O-])c1"
value = -75

[[record]]
mol = "CCCCNC(=S)NNC(=O)c1cc(-c2cccnc2)nc2ccccc12"
value = -7.41

[[record]]
mol = "CC(C)CCNC(=O)c1cc(-c2cccs2)nc2ccccc12"
value = 5.1

[[record]]
mol = "O=C(Nc1ccccc1N1CCN(c2ccccc2)CC1)c1cccc(F)c1"
value = -8.05

[[record]]
mol = "O=C(NC(=S)NCc1ccccc1)c1ccc2c(c1)OCO2"
value = -8.81

[[record]]
mol = "COc1ccc(CCNC(=O)Cc2cc(=O)[nH]c(=O)[nH]2)cc1OC"
value = -9.44

